Entries and their viability at 48 h, 3 µM values follow.
- Test method notes: Cell viability measurement (MTS), Vero cells
- Type: cell-based
- Particulars: monkey, 3 μM
- Method: Experimental Example 3: Cell Viability Measurement Vero cell line (VERO01WCB-1201, Ministry of Food and Drug Safety, Republic of Korea), Calu-3 cell line (KCLB #30055, Korea Cell Line Bank (KCLB), Republic of Korea), CellTiter 96® AQueous One Solution Cell Proliferation Assay kit (Promega, cat. #G3582), and Infinite M200 microplate reader (Tecan). […] The cell viability (also, referred to as cell survival rate) (%) by compound treatment was calculated using the following analysis method. […]

>  <Test smiles>
Fc1cc2nc(-c3cccc(Nc4ccc(-c5ccccc5)nn4)c3)[nH]c2cc1Br

>  <viability at 48 h, 3 µM>
> 80%

$$$$
>  <Test smiles>
c1cc(Nc2ccc(-c3ccncn3)cc2)cc(-c2nc3ccccc3[nH]2)c1

>  <viability at 48 h, 3 µM>
> 80%

$$$$
>  <Test smiles>
FC(F)(F)c1ccc2nc(-c3cccc(Nc4ccc(-c5ccccn5)cn4)c3)[nH]c2c1

>  <viability at 48 h, 3 µM>
> 80%

$$$$
>  <Test smiles>
FC(F)(F)Oc1ccc2nc(-c3cccc(Nc4ccc(-c5ccccc5)nn4)c3)[nH]c2c1

>  <viability at 48 h, 3 µM>
50 to 80%

$$$$
>  <Test smiles>
c1cc(Nc2ccc(-c3cncnc3)cc2)cc(-c2nc3ccccc3[nH]2)c1

>  <viability at 48 h, 3 µM>
50 to 80%

$$$$
>  <Test smiles>
CC(C)(C)c1ccc2nc(-c3cccc(Nc4ccc(-c5ccccc5)nn4)c3)[nH]c2c1

>  <viability at 48 h, 3 µM>
50 to 80%

$$$$
>  <Test smiles>
c1ccc(-c2ccc(Nc3cccc(-c4nc5ccccc5[nH]4)c3)nn2)cc1

>  <viability at 48 h, 3 µM>
> 80%

$$$$
>  <Test smiles>
FC(F)(F)c1ccc2nc(-c3cccc(Nc4ccc(-c5cccnn5)cc4)c3)[nH]c2c1

>  <viability at 48 h, 3 µM>
> 80%

$$$$
>  <Test smiles>
FC(F)(F)c1cc2nc(-c3cccc(Nc4ccc(-c5ccccc5)nn4)c3)[nH]c2cc1Br

>  <viability at 48 h, 3 µM>
50 to 80%

$$$$
>  <Test smiles>
FC(F)(F)c1cc2nc(-c3cccc(Nc4ccc(-c5ccccc5)nn4)c3)[nH]c2cc1Cl

>  <viability at 48 h, 3 µM>
> 80%

$$$$
>  <Test smiles>
FC(F)(F)c1ccc2nc(-c3cccc(Nc4ncc(-c5cccnn5)cn4)c3)[nH]c2c1

>  <viability at 48 h, 3 µM>
> 80%

$$$$
>  <Test smiles>
Fc1ccc2nc(-c3cccc(Nc4ccc(-c5ccncn5)cn4)c3)[nH]c2c1

>  <viability at 48 h, 3 µM>
> 80%

$$$$
>  <Test smiles>
Clc1cc2nc(-c3cccc(Nc4ccc(-c5ccccc5)cn4)c3)[nH]c2cc1Cl

>  <viability at 48 h, 3 µM>
> 80%

$$$$
>  <Test smiles>
Fc1ccc2nc(-c3cccc(Nc4ccc(-c5ccccn5)cn4)c3)[nH]c2c1

>  <viability at 48 h, 3 µM>
> 80%

$$$$
>  <Test smiles>
FC(F)(F)c1ccc2nc(-c3cccc(Nc4ccc(-c5ccccc5)nn4)c3)[nH]c2c1

>  <viability at 48 h, 3 µM>
> 80%

$$$$
>  <Test smiles>
Fc1ccc2nc(-c3cccc(Nc4ccc(-c5cccnn5)cc4)c3)[nH]c2c1

>  <viability at 48 h, 3 µM>
> 80%

$$$$
>  <Test smiles>
FC(F)(F)c1ccc2nc(-c3cccc(Nc4ccc(-c5ncccn5)cc4)c3)[nH]c2c1

>  <viability at 48 h, 3 µM>
> 80%

$$$$
>  <Test smiles>
FC(F)(F)c1ccc2nc(-c3cccc(Nc4ccc(-c5ccncn5)cc4)c3)[nH]c2c1

>  <viability at 48 h, 3 µM>
> 80%

$$$$

Where do the numbers come from? From patent US20260364068A1.
